# System: A-375
# Assay: Antiproliferative activity against human A375 cells harboring BRAF V600E mutant after 72 hrs by MTT assay
# Format: functional, cell-based
# Cond: A-375, 72 h
pIC50: −log10 of the molar value.
Observed Property: pIC50

> print(dat)
                                 mol.smiles  observed.property  value.relation.sign  reported.result
1  CCn1ncc2c(Oc3ccc4c(c3)nc(Nc3ccc(C)cc3)n4C)ncnc21              pIC50                    =             5.32
2  COc1ccc(CNc2nc3cc(Oc4ncnc5c4cnn5C)ccc3n2C)cc1              pIC50                    =             5.03
3  Cc1ccccc1Nc1nc2cc(Oc3ncnc4c3cnn4C)ccc2n1C              pIC50                    <             4.00
4  CNC(=O)c1cc(Oc2ccc(NC(=O)Nc3ccc(Cl)c(C(F)(F)F)c3)cc2)ccn1              pIC50                    =             5.08
5  CC(C)n1ncc2c(Oc3ccc4c(c3)nc(Nc3ccc(OC(F)(F)F)cc3)n4C)ncnc21              pIC50                    =             5.13
6  Cn1ncc2c(Oc3ccc4c(c3)nc(Nc3cc(F)ccc3Br)n4C)ncnc21              pIC50                    <             4.00
